Assay: In vitro binding affinity for PBR (peripheral benzodiazepine receptor) in monkey brain

compoundString: COc1ccc(OC)c(CN(C(C)=O)c2cc(F)ccc2Oc2ccccc2)c1
Ki [nM]: 0.188
